System: HCT-116
Assay: NCI tumour cell line growth inhibition, 48 h
Activity calls are given as the source filed them. Rule as the data show it: active = GI50 up to about 1.1 µM and inactive = higher.
readoutType: GI50

>>> print(df.to_string())
                                    molecule        recordedresult
 0  CN(Cc1ccccc1)C(=S)S [SODIUM BENZYL(METHYL)CARBAMODITHIOATE]    19.2 µM (inactive)
 1  CN(C)CCn1c(=O)c2ccc(NCCCN(C)CCCNc3ccc4c(=O)n(CCN(C)C)c(=O)n5c6ccc(O)cc6c(=O)c3c45)c3c(=O)c4cc(O)ccc4n(c1=O)c23    < 0.01 µM (active)
 2  OC1CC2CCCN(CCc3c1[nH]c1ccccc31)C2 (centres undefined)   > 100 µM (inactive)
 3       O=CN1CCN(C(=O)c2cc(Cl)cc(Cl)c2)C1=S    18.6 µM (inactive)
 4  CCCCCCCCCCCCCC(=O)OC1CC(=O)OC1CO (centres undefined)    27.4 µM (inactive)
 5     CCOC(=O)c1cc(Br)c(-c2onc(C)c2Br)[nH]1    28.8 µM (inactive)
 6  N#CC1=C(c2ccccc2)C(O)(c2ccccc2)NC1=O (centres undefined)   > 100 µM (inactive)
 7                Cn1c(=S)sc2nc3ccccc3n2c1=S    2.49 µM (inactive)
 8  NNC(=O)N/N=C1\CN(c2ccc(Cl)cc2Cl)C(=O)C(=O)C1c1nc2ccccc2o1 (centres undefined)   > 100 µM (inactive)
 9               CCCCNC(=S)N/N=C/c1cccc(C)n1    20.7 µM (inactive)
10  CS(=O)(=O)N1CC(CCl)c2ccc(NO)cc21 (centres undefined)    14.7 µM (inactive)
11  CC1=NN(c2cccc(Cl)c2)C2(SCC(=O)N2c2nc3ccccc3s2)/C1=C\c1ccc(Cl)cc1 (centres undefined)    16.3 µM (inactive)
12  O=S(=O)(O)c1cc(/N=N/c2cc(S(=O)(=O)O)c3cccnc3c2O)ccc1/C=C/c1ccc(/N=N/c2cc(S(=O)(=O)O)c3cccnc3c2O)cc1S(=O)(=O)O  > 89.1 µM (inactive)
13                     Nc1nc(Cl)cc(NCCCCO)n1   > 100 µM (inactive)

====

Test system: SF-295
Test: NCI tumour cell line growth inhibition, 48 h
The source made the active and inactive calls. No stated cut-off is given here; in the data, active = GI50 up to about 1.1 µM and inactive = higher.
Below, each entry is listed alongside its reported GI50.

compound	assayTarget	GI50
COc1ccc2c3c(c(C(=O)O)oc13)C(CCC(=O)O)CC2 (stereo not given)	SF-295	> 100 µM (inactive)
CC(=O)Nc1ccc(/C=C/C(=O)c2sc(-n3nc(-c4ccccc4)cc3-c3ccccc3)nc2C)cc1	SF-295	> 10 µM (inactive)
COC(=O)C1=C(OC(=O)/C(=C/c2ccc(Cl)cc2Cl)c2ccc(Cl)cc2Cl)C(C(=O)OC)[C@@]2(O)[C@@H](C(=O)OC)[C@H](C)C[C@@H]1[C@@H]2C(=O)OC (stereo not given in full)	SF-295	16.5 µM (inactive)
O=C(O)C1C2CC3C(OC(=O)C31)C2Br (stereo not given)	SF-295	> 100 µM (inactive)
C=CCC12CC(=O)CCC1c1ccc(OC)cc1C2=O (stereo not given)	SF-295	> 100 µM (inactive)
